Sourced from PubChem BioAssay AID1159580

Field: normalized growth. Provide a value for each of the compounds that follow.
- protocolNotes: chemical genetic growth profiling, strain panel (AID 1159580);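 further: tested at 20 µM; growth read once vehicle control cultures reached saturation at 30 °C; 1 = growth at the plate median or of vehicle wells; lower values mean less growth of the strain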
- assaySetup: S. cerevisiae deletion strains, growth OD, locus YMR231W, strain pep5, active compounds read low
Among all 5,500 compounds or so, about 2,000 (36%) were called active. About 18% were inconclusive and are not listed. The list shows a part of the results. Where a SMILES comes first, the peptide text is derived from it.

List reported normalized growth for each of these compounds:
1. COC(=O)/C(C)=C\CC12OC(C)(C)C3CC(C=C4C(=O)c5c(OC)c6c(c(CC=C(C)C)c5OC431)OC(C)(CCC=C(C)C)C=C6)C2=O (stereo unspecified)
2. COC(=O)[C@@H]1OC(=O)C2OC23[C@@]1(C)CCC1[C@]2(C)C(C[C@@H](O)[C@]13C)C(C)(C)[C@H](OC(C)=O)C[C@@H]2OC(C)=O (stereo partly specified)
3. C[C@]12CCC3c4ccc(OC(=O)c5ccccc5)cc4CCC3C1CCC2=O (stereo partly specified)
4. CC(=O)N[C@@H](CC(=O)O)C(=O)N[C@@H](CCC(=O)O)C(=O)O (Ac-Asp-Glu-OH)
5. CC[C@@H]1OC(=O)C[C@@H](O)[C@H](C)[C@@H](O[C@@H]2O[C@H](C)[C@@H](O)[C@H](N(C)C)[C@H]2O)[C@@H](CCN2C[C@H](C)C[C@H](C)C2)C[C@@H](C)C(=O)/C=C/C(C)=C\[C@@H]1CO[C@@H]1O[C@H](C)[C@@H](O)[C@@H](OC)[C@H]1OC

0.99 (inactive)
0.994 (inactive)
0.979 (inactive)
1.01 (inactive)
1 (inactive)
